# METHOD DESCRIPTION: F508del CFTR correction, initial screen, CFBE line, single point (AID 720511);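 note: cells transiently co-express mutant CFTR-F508del with the halide-sensitive YFP; corrector assay measuring rescue of mutant channel to the surface after 24 h compound exposure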
# PROTOCOL CONDITIONS: CFBE cells, YFP halide quenching, at 7.58 µM, hits give high values, % fluorescence drop versus neutral controls, stimulated with forskolin plus potentiator P3
About 1,300 (0.37%) of roughly 350,000 compounds were called active. Many of the other results were omitted from the sample, so actives are more common in it than they were.
READOUT: activity (quench increase)

COMPOUND	READOUT	DATA VALUE
CC(C)(C)[S@@](=O)N1Cc2cc(C(=O)N3CCOCC3)nc(-c3cccc(-c4ccc(C#N)cc4)c3)c2[C@H]1CCO	activity (quench increase)	1.68% (inactive)

Prompt line: Form field: reported activity (quench increase) of CC(C)CC#Cc1cnc2c(c1)C(=O)N([C@@H](C)CO)C[C@H](C)[C@@H](CN(C)S(=O)(=O)c1cn(C)cn1)O2
Response line: 3.77% (inactive)
